Can you tell me log2 fold change for the items I'm about to list?
Target: AAK1 (UniProt Q2M2I8)
Sequence (Q2M2I8 whole entry, looked up): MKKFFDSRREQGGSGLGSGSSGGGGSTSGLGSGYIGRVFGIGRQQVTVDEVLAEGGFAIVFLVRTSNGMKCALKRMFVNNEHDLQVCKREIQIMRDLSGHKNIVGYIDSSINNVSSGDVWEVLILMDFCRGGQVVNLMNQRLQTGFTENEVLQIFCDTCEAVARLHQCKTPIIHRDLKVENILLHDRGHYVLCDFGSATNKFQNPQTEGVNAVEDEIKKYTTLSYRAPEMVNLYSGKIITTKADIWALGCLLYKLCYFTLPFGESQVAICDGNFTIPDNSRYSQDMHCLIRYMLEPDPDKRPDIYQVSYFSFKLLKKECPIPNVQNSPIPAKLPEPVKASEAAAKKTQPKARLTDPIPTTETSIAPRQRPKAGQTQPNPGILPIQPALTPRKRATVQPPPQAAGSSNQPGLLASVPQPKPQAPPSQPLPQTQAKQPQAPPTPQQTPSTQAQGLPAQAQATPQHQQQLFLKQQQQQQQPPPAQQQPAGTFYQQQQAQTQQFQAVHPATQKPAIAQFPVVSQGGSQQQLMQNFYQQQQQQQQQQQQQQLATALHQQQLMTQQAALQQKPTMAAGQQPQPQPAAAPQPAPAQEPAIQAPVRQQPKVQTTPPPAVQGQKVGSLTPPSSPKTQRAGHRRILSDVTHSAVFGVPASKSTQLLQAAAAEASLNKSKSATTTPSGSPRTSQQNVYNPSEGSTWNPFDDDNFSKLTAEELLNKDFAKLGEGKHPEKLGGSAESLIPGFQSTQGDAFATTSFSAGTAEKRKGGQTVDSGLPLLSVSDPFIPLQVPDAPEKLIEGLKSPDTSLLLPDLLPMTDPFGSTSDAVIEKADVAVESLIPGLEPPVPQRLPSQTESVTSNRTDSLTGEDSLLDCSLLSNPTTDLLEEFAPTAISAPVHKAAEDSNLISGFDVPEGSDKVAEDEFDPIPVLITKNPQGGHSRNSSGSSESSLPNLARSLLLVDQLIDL
Experiment: log2 fold change, soluble protein after heating vs DMSO (PISA); higher = thermal stabilisation; K562 cells, 10 uM, 30 min; active = over 0.2 and 3.5 SD of the protein, either way, in both replicates (recomputed)
The full data set covers some 7,900 targets. This sample favours those with a hit. About 0.6% of all pairs of compound and target were hits.
No unit in the answer, only the number.

Record CS(=O)(=O)c1ccc(-c2cnc(N)c(C(=O)Nc3ccccc3)n2)cc1 . Reported log2 fold change: 0.043

log2 fold change reading for CCCS(=O)(=O)Nc1ccc(F)c(C(=O)c2c[nH]c3ncc(Cl)cc23)c1F : -0.028

Record Cc1ccc(-n2nc(C(C)(C)C)cc2NC(=O)Nc2ccc(OCCN3CCOCC3)c3ccccc23)cc1 , field log2 fold change: -0.095

For reference, reported log2 fold change for CO[C@H]1C[C@@H]2CC[C@@H](C)[C@@](O)(O2)C(=O)C(=O)N2CCCC[C@H]2C(=O)O[C@H]([C@H](C)C[C@@H]2CC[C@H](n3cnnn3)[C@H](OC)C2)CC(=O)[C@H](C)/C=C(\C)[C@@H](O)[C@@H](OC)C(=O)[C@H](C)C[C@H](C)/C=C/C=C/C=C/1C stands at -0.004

molecule COc1ccc(Cn2ccc3ccc(C(=O)NO)cc32)cc1 , log2 fold change observed: 0.048

So, Cc1ccc(Sc2cncc3sc(C(N)=O)cc23)cc1 ? Its log2 fold change was 0.032

Looking up CCN(CCCOc1ccc2c(Nc3cc(CC(=O)Nc4cccc(F)c4)[nH]n3)ncnc2c1)CCOP(=O)(O)O , I found its log2 fold change recorded as -0.034
